# MEASUREMENT TARGET: human Adenosine A2a receptor (Homo sapiens (Human), UniProt P29274)
# Sequence (P29274 whole entry): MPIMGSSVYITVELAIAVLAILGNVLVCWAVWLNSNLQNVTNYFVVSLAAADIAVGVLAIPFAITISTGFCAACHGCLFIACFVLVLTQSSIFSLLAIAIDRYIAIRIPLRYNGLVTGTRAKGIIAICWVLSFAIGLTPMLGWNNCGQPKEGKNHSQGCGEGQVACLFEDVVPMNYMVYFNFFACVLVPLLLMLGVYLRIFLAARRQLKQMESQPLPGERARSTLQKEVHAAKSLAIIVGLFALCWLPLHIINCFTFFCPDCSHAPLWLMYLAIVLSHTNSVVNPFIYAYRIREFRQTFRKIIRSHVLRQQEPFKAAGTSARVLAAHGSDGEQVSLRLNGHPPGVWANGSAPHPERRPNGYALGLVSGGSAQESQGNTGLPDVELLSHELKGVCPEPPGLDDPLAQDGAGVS
Where a name gives a salt, the structure may show the parent alone.
Label Y when Ki is strictly below 2 nM; at or above that, label N.

COMPOUND | CLASS NAME
Cc1cc(-c2sc(NC(=O)N3CCN4C(=O)CCCC4C3)nc2-c2cccc(C#N)c2)cc(C)n1 (stereo not shown) | Y
Cc1cc(-c2sc(NC(=O)N3C[C@@H]4C[C@H]3CN4C)nc2-c2cccc(C#N)c2)cc(C)n1 | N
Cc1cc(-c2sc(NC(=O)N3CCC(n4cccn4)CC3)nc2-c2cccc(C#N)c2)cc(C)n1 | Y
Cc1cc(-c2sc(NC(=O)N3CCC4(CCN4C)C3)nc2-c2cccc(C#N)c2)cc(C)n1 (stereo not shown) [Example 4.36, formate salt] | N
Cc1cc(-c2sc(NC(=O)N3CCN[C@H](C)C3)nc2-c2cccc(C#N)c2)cc(C)n1 | Y
Cc1cc(-c2sc(NC(=O)N3CCC(C)(C#N)C3)nc2-c2cccc(C#N)c2)cc(C2COC2)n1 (stereo not shown) | Y

Req: Please determine if `CCN1CCN(C(=O)Nc2nc(-c3cccc(C#N)c3)c(-c3cc(C)nc(C)c3)s2)CC1` is below 2 nM in terms of Ki.
Resp: N

* * *

Recorded measurements of pIC50, one per entry
# System: human PBMCs
# TEST DETAILS: CD3/CD28 stimulated IL-2 release NECA reversal assay in human PBMCs
# Type: cell-based
# SETUP CONDITIONS: PBMC, 1 uM NECA, 24 hours, IL-2 in culture supernatant
# Experimental: Biological Example—CD3/CD28 Stimulated IL-2 Release NECA Reversal Assay in Human PBMCs Blood is drawn from healthy volunteers using sodium citrate as the anticoagulant (0.3% final concentration). After centrifugation of the blood over Histopaque-1077, PBMCs are collected from the Histopaque/plasma interface and washed twice in PBS (300 g for 10 mins at room temp). […]
Notebook: values listed as pIC50 are -log10 of the concentration (mol/L).

Guide cases for pIC50, answers given:
COMPOUND | pIC50
Cc1cc(-c2sc(NC(=O)N3CCC(C)(C#N)CC3)nc2-c2cccc(C#N)c2)c(F)c(C)n1 [Example 6.66] | 8.37
Cc1cc(-c2sc(NC(=O)N3CC4(COC4)C3)nc2-c2cccc(C#N)c2)cc(C(C)(C)O)n1 [Example 12.2] | 9.40
Cc1cc(-c2sc(NC(=O)N3CCC4(CCOCC4)C3)nc2-c2cccc(C#N)c2)cc(C)n1 [Example 6.29] | 8.28
Cc1cc(-c2sc(NC(=O)N3CCN(CCO)CC3)nc2-c2cccc(C#N)c2)cc(C)n1 [Example 4.3] | 7.74
Cc1cc(-c2sc(NC(=O)N3CCN[C@H](C)C3)nc2-c2cccc(C#N)c2)cc(Cl)n1 [Example 5.5] | 7.51
COC1(C#N)CCN(C(=O)Nc2nc(-c3cccc(C#N)c3)c(-c3cc(C)nc(CO)c3)s2)CC1 [Example 9.9] | 8.89

# evaluate next
Req: Please report the recorded pIC50 for Cc1cc(-c2sc(NC(=O)N3CC(C)(C#N)C3)nc2-c2cccc(C#N)c2)c(F)c(C)n1 [Example 6.68] .
Resp: 8.51

* * *

# MEASUREMENT TARGET: human Adenosine A1 receptor (Homo sapiens (Human), UniProt P30542)
# Sequence (P30542 whole entry): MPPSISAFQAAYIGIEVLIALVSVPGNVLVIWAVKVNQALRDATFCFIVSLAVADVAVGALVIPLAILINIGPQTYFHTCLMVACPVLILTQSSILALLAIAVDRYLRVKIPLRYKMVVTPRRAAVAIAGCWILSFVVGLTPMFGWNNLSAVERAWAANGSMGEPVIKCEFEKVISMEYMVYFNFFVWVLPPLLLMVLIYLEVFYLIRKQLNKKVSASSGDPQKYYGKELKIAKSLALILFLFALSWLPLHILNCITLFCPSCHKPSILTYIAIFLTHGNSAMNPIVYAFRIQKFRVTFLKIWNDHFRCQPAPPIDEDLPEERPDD
# TEST DETAILS: Adenosine receptor TR-FRET binding assay (A1)
# SETUP CONDITIONS: inhibition of binding of 100 nM CA200645, CHO cell membranes
# Procedure: Biological Example 1—Adenosine Receptor Time-Resolved Fluorescence Resonance Energy Transfer (TRFRET) Binding Assay […] Serial dilution (1:3 dilutions) of test compounds in neat DMSO and transfer of a 400 nL sample of test compound into the assay plate was carried out using the Mosquito (TTP Labtech, UK). […] Total and non-specific binding of CA200645 was determined in the absence and presence of 10 μM XAC, respectively. […]
METRIC NAME: pKi
Notebook: values listed as pKi are -log10 of the concentration (mol/L).

Guide cases for pKi, answers given:
COMPOUND | pKi
Cc1cc(-c2sc(NC(=O)N3CCNC(=O)C3)nc2-c2cccc(C#N)c2)cc(C)n1 | 7.30
Cc1cc(-c2sc(NC(=O)N3CCN[C@H](CO)C3)nc2-c2cccc(C#N)c2)cc(Cl)n1 | 7.40
CC(=O)N1CCN(C(=O)Nc2nc(-c3cccc(C#N)c3)c(-c3cc(C)nc(C)c3)s2)CC1 | 7.11
Cc1cc(-c2sc(NC(=O)N3CCN(C4COC4)CC3)nc2-c2cccc(C#N)c2)cc(CO)n1 | 6.39
Cc1cc(-c2sc(NC(=O)N3CCC4(CCOCC4)C3)nc2-c2cccc(C#N)c2)cc(C)n1 | 6.64
Cc1cc(-c2sc(NC(=O)N3CCN4C(=O)CNC(=O)C4C3)nc2-c2cccc(C#N)c2)cc(C)n1 (stereo not shown) | 6.61

# evaluate next
Req: Please report the recorded pKi for Cc1cc(-c2sc(NC(=O)N3CCN4C(=O)CN(C)C(=O)C4C3)nc2-c2cccc(C#N)c2)cc(C)n1 (stereo not shown) .
Resp: 6.42
